molecular target: recombinant human GR (Homo sapiens, UniProt P04150); construct: purchased Panvera/Invitrogen P2812 (kit P2893); test: Human Glucocorticoid Receptor (GR) Assay, fluorescence polarization; format: binding; details: GS Red tracer, incubated 2 h at r.t., XLfit model 205, read-out: GRhuFL_FP_v2 Mean IC50
Sequence (P04150 whole entry): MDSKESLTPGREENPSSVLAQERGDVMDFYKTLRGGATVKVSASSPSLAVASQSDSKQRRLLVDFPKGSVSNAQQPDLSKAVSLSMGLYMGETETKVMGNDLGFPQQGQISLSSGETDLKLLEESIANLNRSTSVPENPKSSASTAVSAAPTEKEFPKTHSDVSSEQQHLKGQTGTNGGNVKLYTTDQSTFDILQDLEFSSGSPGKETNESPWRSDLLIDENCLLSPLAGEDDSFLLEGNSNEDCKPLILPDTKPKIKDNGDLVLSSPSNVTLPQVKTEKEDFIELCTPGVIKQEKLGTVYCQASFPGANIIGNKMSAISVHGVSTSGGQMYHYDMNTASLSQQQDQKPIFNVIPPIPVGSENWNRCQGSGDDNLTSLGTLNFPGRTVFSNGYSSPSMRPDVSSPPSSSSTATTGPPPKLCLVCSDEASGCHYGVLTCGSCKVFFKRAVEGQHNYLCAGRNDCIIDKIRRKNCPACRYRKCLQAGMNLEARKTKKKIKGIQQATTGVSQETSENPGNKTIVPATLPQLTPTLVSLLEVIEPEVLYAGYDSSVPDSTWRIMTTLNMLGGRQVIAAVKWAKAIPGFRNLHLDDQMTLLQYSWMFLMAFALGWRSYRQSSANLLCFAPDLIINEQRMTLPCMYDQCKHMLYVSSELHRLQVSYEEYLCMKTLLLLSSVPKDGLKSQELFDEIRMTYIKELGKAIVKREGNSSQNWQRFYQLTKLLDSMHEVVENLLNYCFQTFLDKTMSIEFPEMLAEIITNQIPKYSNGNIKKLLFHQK
reported endpoint: IC50 (nM)
Just the number in nM, nothing appended.

Reading of IC50 for C[C@H](NC(=O)C1(C)CC1)[C@H](Oc1ccc2c(cnn2-c2ccc(F)cc2)c1)c1ccc(C(C)(C)C)cc1 with recombinant human GR (Homo sapiens, UniProt P04150): 7.2

Tested on recombinant human GR (Homo sapiens, UniProt P04150), the item C[C@H](NC(=O)C(F)(F)F)[C@H](Oc1ccc2c(cnn2-c2ccc(F)cc2)c1)c1ccc2c(c1)OCC2 showed IC50 equal to 4.8

// molecule Cc1cnc(C(=O)N[C@@H](C)[C@H](Oc2ccc3c(cnn3-c3ccc(F)cc3)c2)c2cccc(Cl)c2)s1 , assay recombinant human GR (Homo sapiens, UniProt P04150), IC50 value: 7.4

Entry C[C@H](NC(=O)[C@@H]1CCCN1)[C@H](Oc1ccc2c(cnn2-c2ccc(F)cc2)c1)c1ccc2c(c1)OCCO2 ; assay system recombinant human GR (Homo sapiens, UniProt P04150); IC50 recorded at 6.4
